Reported values of viability increase for individual entries
run_description: viability gain of MRP-1-high H69AR cells under doxorubicin, pilot screen, MRP-1 activator project, CellTiter-Glo, duplicate (AID 807);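 further: compound pretreatment 18-22 h then 72 h combined with doxorubicin; 0% = doxorubicin alone and 100% = vehicle without doxorubicin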
protocol_conditions: H69AR viability with doxorubicin, CellTiter-Glo luminescence; at 10 µM; active compounds read high
Active and inactive are the calls of the source.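 How the source made its calls: active means viability increase at or above a cutoff of the median across tested compounds plus 3 SD (cut at about 8.5% in these data, passing the limit was not always enough); inconclusive means some gains above the cutoff, reason not given; inactive means the rest.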
reported_property: viability increase

[[record]]
compound = "CCOC(=O)c1c(CN2CCCCC2)n(C)c2ccc(OC)c(S(=O)(=O)c3ccccc3)c12"
result = "-3.9% (inactive)"

[[record]]
compound = "CCOC(=O)C1CCN(C(=O)c2oc3ccc(S(=O)(=O)N4CC(C)CC(C)C4)cc3c2C)CC1 (centres undefined)"
result = "-6.15% (inactive)"

[[record]]
compound = "COc1ccc(OC)c(NC(=O)Nc2nnc(N3CCC(C)CC3)s2)c1"
result = "0.87% (inactive)"

[[record]]
compound = "O=C(Nc1cccnc1)c1ccccc1F"
result = "-0.03% (inactive)"


----------
run_description: Restrictive medium S. cerevisiae growth inhibition, OD615, pilot screen of yeast lifespan reduction project, restrictive growth control (AID 706);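 further: modified DeaD lifespan yeast strain shifted to restrictive glucose medium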
protocol_conditions: OD615, 48 h, at 10 µM, active compounds read high
Reported values of growth inhibition for individual entries
reported_property: growth inhibition (%)

[[record]]
compound = "C=CCSC1=C(C#N)C(c2ccc(OCC)cc2)CC(=O)N1 (centres undefined)"
reported_property = "growth inhibition"
result_number = 15.4

[[record]]
compound = "CC(=O)C1=C(C)Nc2cc(C(F)(F)F)ccc2S1"
reported_property = "growth inhibition"
result_number = 27.2

[[record]]
compound = "CC(=O)c1ccc(OCC(O)CN2CCOCC2)cc1 (centres undefined)"
reported_property = "growth inhibition"
result_number = 10.1

[[record]]
compound = "Cc1sc(NC(=O)CCCC(=O)O)c(C#N)c1C"
reported_property = "growth inhibition"
result_number = 16.8


----------
run_description: SK-BR-3 cell growth inhibitors, pilot screen, 24 h, human (AID 572);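 further: compound exposure lasted between 18 and 24 h rather than exactly 24 h; 100% = carrier-treated control wells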
protocol_conditions: SK-BR-3 viability, CellTiter-Glo luminescence, at 10 µM, active compounds read low
Reported values of viability for individual entries
reported_property: viability (%)

[[record]]
compound = "CCOC(=O)C1CCN(S(=O)(=O)c2cc(Cl)c(C)cc2OC)CC1"
result_number = 90

[[record]]
compound = "CN(C)CCOc1ccccc1Cc1ccccc1"
result_number = 88.5

[[record]]
compound = "O=C(O)CCc1ccc(-c2cccs2)n1CCC(=O)O"
result_number = 108

[[record]]
compound = "S=c1[nH]nc(-c2cccc(Br)c2)o1"
result_number = 91

[[record]]
compound = "Cc1ccc(/C=N/n2nnnc2N)o1"
result_number = 93

[[record]]
compound = "c1ccc(CCn2nnnc2C(c2cccs2)N2CCOCC2)cc1 (stereo unspecified)"
result_number = 102

[[record]]
compound = "CCOCCCNS(=O)(=O)c1ccc2c(c1)oc(=O)n2CC(=O)OCC"
result_number = 107

[[record]]
compound = "COc1ccc(OC)c(C(=O)c2coc3ccc(O)c(CN4CCOCC4)c23)c1"
result_number = 95.5

[[record]]
compound = "CSc1nc(C)c(C(=O)Nc2ccccc2)c(C)c1C#N"
result_number = 100

[[record]]
compound = "CCOC(=O)N1CCN(c2c(NCCCOC(C)C)c(=O)c2=O)CC1"
result_number = 97.5

[[record]]
compound = "CCOC(=O)C1CCN(c2c(NCCN3CCN(c4ccccc4)CC3)c(=O)c2=O)CC1"
result_number = 87.5

[[record]]
compound = "O=C(Cn1cccc1C(=O)c1ccccc1)NCCN1CCOCC1"
result_number = 98

[[record]]
compound = "c1coc(Cn2nnnc2CN2CCN(C3CCCC3)CC2)c1"
result_number = 90.5

[[record]]
compound = "CCOC(=O)N1CCN(CC(=O)c2c(C)[nH]c3ccccc23)CC1"
result_number = 94

[[record]]
compound = "FC(F)Sc1nnc(-c2cccs2)n1-c1ccccc1"
result_number = 101

[[record]]
compound = "O=C(NCC(=O)N(c1cnc2ccccc2c1)C(C(=O)NC1CCCC1)c1ccncc1)c1ccco1 (stereo unspecified)"
result_number = 86

[[record]]
compound = "COc1ccc(C)cc1S(=O)(=O)Nc1cccnc1"
result_number = 90.5

[[record]]
compound = "CCOC(=O)C1CCCN(C(=O)c2cc3c(=O)n4cccc(C)c4nc3n2C)C1 (stereo unspecified)"
result_number = 106

[[record]]
compound = "CCN(CC)S(=O)(=O)c1ccc(NC2CCCc3ccccc32)nc1 (stereo unspecified)"
result_number = 71.5

[[record]]
compound = "CO[C@@]1(NC(=O)CSCC#N)C(=O)N2C(C(=O)O)=C(CSc3nnnn3C)CS[C@@H]21"
result_number = 110

[[record]]
compound = "O=C(CSc1nnc(-c2ccc(Br)o2)n1Cc1ccccc1)c1ccccc1F"
result_number = 81.5

